# Target: GABAB receptor (Mus musculus, UniProt Q80T41+Q9WV18)
# Construct: a mouse brain cortex membrane (4 μg); tissue Japan SLC, Inc. (ddY mice)
# Sequence (Q9WV18 20-960): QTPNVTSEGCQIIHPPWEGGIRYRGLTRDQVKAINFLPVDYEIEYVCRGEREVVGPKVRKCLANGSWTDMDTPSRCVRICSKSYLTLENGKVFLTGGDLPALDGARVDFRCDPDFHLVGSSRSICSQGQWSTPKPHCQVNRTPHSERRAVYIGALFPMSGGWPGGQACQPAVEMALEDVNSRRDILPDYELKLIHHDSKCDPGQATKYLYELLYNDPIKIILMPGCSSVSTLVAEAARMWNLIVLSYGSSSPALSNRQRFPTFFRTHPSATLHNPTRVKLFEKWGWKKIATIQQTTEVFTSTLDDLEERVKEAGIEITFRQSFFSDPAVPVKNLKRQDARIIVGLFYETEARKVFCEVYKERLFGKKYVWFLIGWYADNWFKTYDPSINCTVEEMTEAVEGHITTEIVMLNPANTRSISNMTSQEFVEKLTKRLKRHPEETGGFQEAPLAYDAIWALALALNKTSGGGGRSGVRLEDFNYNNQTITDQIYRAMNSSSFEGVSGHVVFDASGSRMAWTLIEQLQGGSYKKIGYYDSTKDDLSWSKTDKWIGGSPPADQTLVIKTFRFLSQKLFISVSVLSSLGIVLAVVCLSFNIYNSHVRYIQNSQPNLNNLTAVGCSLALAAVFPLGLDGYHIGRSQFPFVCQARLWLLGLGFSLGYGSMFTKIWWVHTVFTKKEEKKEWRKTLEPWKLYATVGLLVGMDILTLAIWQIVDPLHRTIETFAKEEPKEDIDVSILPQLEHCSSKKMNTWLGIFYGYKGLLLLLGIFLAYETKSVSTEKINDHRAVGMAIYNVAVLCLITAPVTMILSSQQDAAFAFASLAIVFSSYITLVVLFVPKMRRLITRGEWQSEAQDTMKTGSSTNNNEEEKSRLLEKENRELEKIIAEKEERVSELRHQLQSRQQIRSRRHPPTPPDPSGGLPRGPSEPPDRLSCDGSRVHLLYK
# Sequence (Q80T41 41-940): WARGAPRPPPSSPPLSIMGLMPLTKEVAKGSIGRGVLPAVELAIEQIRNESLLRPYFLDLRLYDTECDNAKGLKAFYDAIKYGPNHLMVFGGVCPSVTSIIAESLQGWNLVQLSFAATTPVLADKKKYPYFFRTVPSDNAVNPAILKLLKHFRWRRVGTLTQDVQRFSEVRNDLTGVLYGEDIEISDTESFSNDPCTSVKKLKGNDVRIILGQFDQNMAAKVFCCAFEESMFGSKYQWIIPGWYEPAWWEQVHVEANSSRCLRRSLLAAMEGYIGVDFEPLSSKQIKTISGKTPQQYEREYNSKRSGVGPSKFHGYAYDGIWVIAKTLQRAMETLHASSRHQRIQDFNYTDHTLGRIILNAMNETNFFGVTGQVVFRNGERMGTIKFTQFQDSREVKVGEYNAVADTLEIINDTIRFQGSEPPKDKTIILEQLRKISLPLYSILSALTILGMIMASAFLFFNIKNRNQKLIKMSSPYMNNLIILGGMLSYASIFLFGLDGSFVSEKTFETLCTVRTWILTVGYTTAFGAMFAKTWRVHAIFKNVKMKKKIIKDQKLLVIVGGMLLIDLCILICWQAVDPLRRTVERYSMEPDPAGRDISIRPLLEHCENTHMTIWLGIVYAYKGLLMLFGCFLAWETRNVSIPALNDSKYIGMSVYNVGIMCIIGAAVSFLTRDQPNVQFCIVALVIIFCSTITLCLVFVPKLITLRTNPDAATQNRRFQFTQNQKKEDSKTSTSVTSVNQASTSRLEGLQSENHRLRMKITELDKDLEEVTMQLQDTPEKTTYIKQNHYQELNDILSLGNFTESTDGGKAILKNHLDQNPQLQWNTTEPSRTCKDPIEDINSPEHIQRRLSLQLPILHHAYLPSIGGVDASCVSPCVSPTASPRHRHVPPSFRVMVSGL
# Assay Method Text: [35S]GTPγS binding test for PAM action, mouse brain cortical membrane
# Test Context: concentration raising reaction rate from 20% with 0.3 μM GABA to 50%; 100 μM GABA = 100%; mouse brain cortex membrane; read-out: Potency (PAM Potency of GABAB)
# Experimental: The function of the GABAB receptor of the compound of the present invention was evaluated using a [^35S] GTPγS binding test. […] The PAM action of the GABAB receptor in the mouse brain cortex of a test drug was evaluated. […] GTPγS bound to the membrane was measured on a plate reader (TopCount, PerkinElmer, Inc.). […]
pEC50: −log10 of the molar value.
Parameter Measured: pEC50

Below: 3 compounds and their reported pEC50.
compound="Cc1nc(CN2CCC(O)C(F)C2)c2cc(C3CCC(C)(C)CC3)sc2n1 (stereo not shown)" result_value=6.82
compound=Cc1nc(CN2CCC3(CC2)CC3)c2cc(C3CCC(C)(C)CC3)sc2n1 result_value=6.59
compound=Cc1nc(CN2CCC[C@@H](O)C2)c2cc(C3CCC(C)(C)CC3)sc2n1 result_value=7.05

(I) Cc1nc(CN2CCC(O)(C(F)(F)F)CC2)c2cc(C3CCC(C)(C)CC3)sc2n1
(II) Cc1nc(CN2CCOC[C@H]2CO)c2cc(C3CCC(C)(C)CC3)sc2n1
q: Thinking about recorded pEC50 values, which is higher, I or II ? Please respond with the label that marks your chosen entry.
a: I

(1) Cc1nc(CN2CCOC(C)(C)C2)c2cc(C3CCC(C)(C)CC3)sc2n1
(2) Cc1nc(CN2CC[C@@H](O)[C@H](O)C2)c2cc(C3CCC(C)(C)CC3)sc2n1 (single isomer, unassigned) [Ex31-1]
q: Which value of pEC50 is greater, the one for 1 or the one for 2 ? Answer with the label corresponding to your selection.
a: 2

---

# Target: GABAB receptor (Mus musculus, UniProt Q80T41+Q9WV18)
# Construct: a mouse brain cortex membrane (4 μg); tissue Japan SLC, Inc. (ddY mice); host or cells: mouse brain cortex membrane
# Assay Method Text: [35S]GTPγS binding test for PAM action, mouse brain cortical membrane
# Type: biochemical
# Test Context: maximum reaction rate in presence of 0.3 μM GABA, test drug up to 30 μM; 100 μM GABA = 100%; read-out: Efficacy (PAM Efficacy of GABAB)
Parameter Measured: Emax (%)

molecule="Cc1nc(CN2CCC[C@@H](O)C2)c2cc(C3CCC(C)(C)CC3)sc2n1 [Ex72]" parameter_measured=Emax result_value=289
molecule="Cc1nc(CN2CCC(O)C(F)C2)c2cc(C3CCC(C)(C)CC3)sc2n1 (stereo not drawn) [Ex51]" parameter_measured=Emax result_value=249
molecule="Cc1nc(CN2CCOCC2(C)C)c2cc(C3CCC(C)(C)CC3)sc2n1 [Ex79]" parameter_measured=Emax result_value=230
molecule="Cc1nc(CN2CCN(C(=O)CO)CC2(C)C)c2cc(C3CCC(C)(C)CC3)sc2n1 [Ex155]" parameter_measured=Emax result_value=159
molecule="Cc1nc(CN2CC[C@H](O)[C@@H](F)C2)c2cc(C3CCC(C)(C)CC3)sc2n1 [Ex144]" parameter_measured=Emax result_value=182

(P) Cc1nc(CN2CCSCC2)c2cc(C3CCC(C)(C)CC3)sc2n1 [Ex74]
(Q) Cc1nc(CN2CCN(C)CC2(C)C)c2cc(C3CCC(C)(C)CC3)sc2n1 [Ex151]
(R) Cc1nc(CN2CCC(O)(C(F)(F)F)CC2)c2cc(C3CCC(C)(C)CC3)sc2n1 [Ex12]
q: Sequence the entries by Emax, beginning with the highest number. // format: requested-order list of labels
a: R, P, Q
(R: 377%, P: 244%, Q: 168%)

---

# Target: GABAB receptor (Mus musculus, UniProt Q80T41+Q9WV18)
# Construct: a mouse brain cortex membrane (4 μg); tissue Japan SLC, Inc. (ddY mice); host or cells: mouse brain cortex membrane
# Assay Method Text: [35S]GTPγS binding test for PAM action, mouse brain cortical membrane
# Format: biochemical
# Test Context: concentration raising reaction rate from 20% with 0.3 μM GABA to 50%; 100 μM GABA = 100%; mouse brain cortex membrane; read-out: Potency (PAM Potency of GABAB)
pEC50: −log10 of the molar value.
Parameter Measured: pEC50

Example results:
compound=Cc1nc(CN2CC[C@H](O)[C@@H](F)C2)c2cc(C3CCC(C)(C)CC3)sc2n1 parameter_measured=pEC50 result_value=6.51
compound=Cc1nc(CN2CCC[C@H](O)C2)c2cc(C3CCC(C)(C)CC3)sc2n1 parameter_measured=pEC50 result_value=7.07
compound=Cc1nc(CN2CCC(C)(O)CC2)c2cc(C3CCC(C)(C)CC3)sc2n1 parameter_measured=pEC50 result_value=6.92
compound="Cc1nc(CN2CCC(O)C(CO)C2)c2cc(C3CCC(C)(C)CC3)sc2n1 (stereo not drawn)" parameter_measured=pEC50 result_value=6.96
compound=Cc1nc(CN2CCCC(C)(C)C2)c2cc(C3CCC(C)(C)CC3)sc2n1 parameter_measured=pEC50 result_value=6.36

(1) Cc1nc(CN2C[C@@H](C)O[C@@H](C)C2)c2cc(C3CCC(C)(C)CC3)sc2n1
(2) Cc1nc(CN2CCC(O)C(C)(C)C2)c2cc(C3CCC(C)(C)CC3)sc2n1 (stereo not drawn)
(3) Cc1nc(CN2CCSCC2)c2cc(C3CCC(C)(C)CC3)sc2n1
(4) Cc1nc(CN2CCOCC2(C)C)c2cc(C3CCC(C)(C)CC3)sc2n1
q: Please rank these compounds by pEC50 in descending order. Please list the labels according to the requested order.
a: 4, 2, 3, 1
(4: 7.34, 2: 7.00, 3: 6.72, 1: 6.38)

---

# Target: GABAB receptor (Mus musculus, UniProt Q80T41+Q9WV18)
# Construct: a mouse brain cortex membrane (4 μg); tissue Japan SLC, Inc. (ddY mice)
# Assay Method Text: [35S]GTPγS binding test for PAM action, mouse brain cortical membrane
# Test Context: concentration raising reaction rate from 20% with 0.3 μM GABA to 50%; 100 μM GABA = 100%; mouse brain cortex membrane; read-out: Potency (PAM Potency of GABAB)
Where a name gives a salt, the structure may show the parent alone.
Parameter Measured: EC50 (µM)

compound="Cc1nc(CN2CCC(C(F)F)CC2)c2cc(C3CCC(C)(C)CC3)sc2n1 [Ex61]" parameter_measured=EC50 result_value=0.24

(A) Cc1nc(CN2CCS(=O)(=O)CC2)c2cc(C3CCC(C)(C)CC3)sc2n1 [Ex2]
(B) Cc1nc(CN2CCC(O)CC2(C)C)c2cc(C3CCC(C)(C)CC3)sc2n1 (stereo not drawn) [Ex142]
(C) CC(=O)N1CCN(Cc2nc(C)nc3sc(C4CCC(C)(C)CC4)cc23)C(C)(C)C1 [Ex153, hydrochloride]
(D) Cc1nc(CN2CCC(F)(F)CC2)c2cc(C3CCC(C)(C)CC3)sc2n1 [Ex55]
(E) Cc1nc(CN2CCOC[C@@H]2CO)c2cc(C3CCC(C)(C)CC3)sc2n1 [Ex102]
q: Please put the entries in order of rising EC50. State the ranking by listing the labels in the requested order.
a: B, C, A, D, E
(B: 0.0071 µM, C: 0.059 µM, A: 0.11 µM, D: 0.25 µM, E: 0.4 µM)

---

# Target: GABAB receptor (Mus musculus, UniProt Q80T41+Q9WV18)
# Construct: a mouse brain cortex membrane (4 μg); tissue Japan SLC, Inc. (ddY mice)
# Assay Method Text: [35S]GTPγS binding test for PAM action, mouse brain cortical membrane
# Test Context: concentration raising reaction rate from 20% with 0.3 μM GABA to 50%; 100 μM GABA = 100%; mouse brain cortex membrane; read-out: Potency (PAM Potency of GABAB)
Counter-ions that a name gives are not always drawn.
Parameter Measured: EC50 (nM)

Take a look at these entries with their results.
molecule=CCC1(O)CCN(Cc2nc(C)nc3sc(C4CCC(C)(C)CC4)cc23)CC1 unit_info=nM result_value=260
molecule="Cc1nc(CN2CCC(O)CC2)c2cc(C3CCC(C)(C)CC3)sc2n1 [Ex52, hydrochloride]" unit_info=nM result_value=170
molecule=Cc1nc(CN2CCS(=O)(=O)CC2)c2cc(C3CCC4(CC3)CC4)sc2n1 unit_info=nM result_value=200

(I) Cc1nc(CN2CCC(CO)(CO)CC2)c2cc(C3CCC(C)(C)CC3)sc2n1
(II) COCC1(O)CCN(Cc2nc(C)nc3sc(C4CCC(C)(C)CC4)cc23)CC1
(III) Cc1nc(CN2CC[C@@H](O)[C@H](O)C2)c2cc(C3CCC(C)(C)CC3)sc2n1 (single isomer, unassigned) [Ex31]
(IV) Cc1nc(CN2CCN(C(=O)CO)CC2(C)C)c2cc(C3CCC(C)(C)CC3)sc2n1
(V) Cc1nc(CN2CC[C@@H](O)[C@@H](F)C2)c2cc(C3CCC(C)(C)CC3)sc2n1
q: Hey, can you sort those molecules up there by EC50, smallest first? Please write the labels in the order that was asked for.
a: IV, III, I, II, V
(IV: 46 nM, III: 110 nM, I: 240 nM, II: 540 nM, V: 1200 nM)
